AUC of viability dose-response curve for assorted compounds
System: NOMO1
PROTOCOL_TEXT: AUC of viability dose-response curve (% viability x log10 dose units); higher = less sensitive
ASSAY_SETUP: RPMI 5 mM glucose + 10% FBS; 48 h

{"SMILES_INPUT": "CC#C[C@]1(O)CC[C@H]2[C@@H]/3CCC/4=C/C(=O)CCC4=C3[C@H](C[C@]12C)C5=CC=C(C=C5)N(C)C", "ASSAYED_SYSTEM": "NOMO1", "RECORDED_METRIC": "AUC of viability dose-response curve", "EXPERIMENTAL_RESULT": 364}
{"SMILES_INPUT": "CCC1=C[C@@H]2CN(C1)Cc1c([nH]c3ccccc13)[C@@](C(=O)OC)(c1cc3c(cc1OC)N(C)[C@H]1[C@@](O)(C(=O)OC)[C@H](OC(C)=O)[C@]4(CC)C=CCN5CC[C@]31[C@@H]54)C2", "ASSAYED_SYSTEM": "NOMO1", "RECORDED_METRIC": "AUC of viability dose-response curve", "EXPERIMENTAL_RESULT": 259}
{"SMILES_INPUT": "CC(C)(C)/[N+]([O-])=C/c1ccc([S+](=O)([O-])[O][Na])cc1[S+](=O)([O-])[O][Na]", "ASSAYED_SYSTEM": "NOMO1", "RECORDED_METRIC": "AUC of viability dose-response curve", "EXPERIMENTAL_RESULT": 445}

Return AUC of viability dose-response curve measured with NOMO1 given this compound: C=C(C)[C@@H]1CC[C@]2(C)CC[C@]3(C)[C@H](CC[C@@H]4[C@@]5(C)CC[C@H](O)C(C)(C)[C@@H]5CC[C@]43C)[C@@H]12
466

Return AUC of viability dose-response curve measured with NOMO1 given this compound: O=C1c2c(O)cccc2[C@H]([C@@H]2O[C@H](CO)[C@@H](O)[C@H](O)[C@H]2O)c2cc(CO)cc(O)c21
404

Return AUC of viability dose-response curve measured with NOMO1 given this compound: COc1cc2nccc(Oc3ccc(NC(=O)Nc4ccc(F)cc4F)c(F)c3)c2cc1OC
414

Return AUC of viability dose-response curve measured with NOMO1 given this compound: Cc1ccc(NC(=O)C2(c3ccc4c(c3)OC(F)(F)O4)CC2)nc1-c1cccc(C(=O)O)c1
246
